Listing of recorded total protein half-life in vivo by entry.
# method: total protein half-life in vivo (active degradation + dilution); higher = more stable protein
# measurement_conditions: wild type E. coli NCM3722; growth: P-lim chemostat; doubling time 12 h
// note: answer is a bare numeric in h

{"residue_codes": "MAILGLGTDIVEIARIEAVIARSGDRLARRVLSDNEWAIWKTHHQPVRFLAKRFAVKEAAAKAFGTGIRNGLAFNQFEVFNDELGKPRLRLWGEALKLAEKLGVANMHVTLADERHYACATVIIES", "endpoint_label": "total protein half-life in vivo", "value_observed": 11.5}
{"residue_codes": "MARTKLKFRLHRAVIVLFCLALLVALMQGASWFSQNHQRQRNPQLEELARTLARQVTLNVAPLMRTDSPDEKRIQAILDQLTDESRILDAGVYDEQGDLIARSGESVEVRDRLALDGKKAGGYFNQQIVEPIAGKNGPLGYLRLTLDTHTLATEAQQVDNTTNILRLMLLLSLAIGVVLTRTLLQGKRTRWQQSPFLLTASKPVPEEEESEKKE [P0AGC7]", "endpoint_label": "total protein half-life in vivo", "value_observed": 9.34}
{"residue_codes": "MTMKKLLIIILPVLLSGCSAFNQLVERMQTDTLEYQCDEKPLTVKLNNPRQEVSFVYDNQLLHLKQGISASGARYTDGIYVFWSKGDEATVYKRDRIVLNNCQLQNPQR", "endpoint_label": "total protein half-life in vivo", "value_observed": 13.8}

Now for another entry.
[ask] Report total protein half-life in vivo for MSNWPYPRIVAHRGGGKLAPENTLASIDVGAKYGHKMIEFDAKLSKDGEIFLLHDDNLERTSNGWGVAGELNWQDLLRVDAGSWYSKMFKGEPLPLLSQVAERCREHGMMANIEIKPTTGTGPLTGKMVALAARELWAGMTPPLLSSFEIDALEAAQQAAPELPRGLLLDEWRDDWRELTARLGCVSIHLNHKLLNKARVMQLKDAGLRILVYTVNKPQRAAELLRWGVDCICTDAIDVIGPNFTAQ please.
[reply] 9.88

====

# method: total protein half-life in vivo (active degradation + dilution); higher = more stable protein
# measurement_conditions: wild type E. coli NCM3722; growth: N-lim chemostat; doubling time 12 h
Listing of recorded total protein half-life in vivo by entry.

[ask] Report total protein half-life in vivo for MSNITIYHNPACGTSRNTLEMIRNSGTEPTIIHYLETPPTRDELVKLIADMGISVRALLRKNVEPYEELGLAEDKFTDDRLIDFMLQHPILINRPIVVTPLGTRLCRPSEVVLEILPDAQKGAFSKEDGEKVVDEAGKRLK [P0AB96] please.
[reply] 6.1 h

[ask] Now the same for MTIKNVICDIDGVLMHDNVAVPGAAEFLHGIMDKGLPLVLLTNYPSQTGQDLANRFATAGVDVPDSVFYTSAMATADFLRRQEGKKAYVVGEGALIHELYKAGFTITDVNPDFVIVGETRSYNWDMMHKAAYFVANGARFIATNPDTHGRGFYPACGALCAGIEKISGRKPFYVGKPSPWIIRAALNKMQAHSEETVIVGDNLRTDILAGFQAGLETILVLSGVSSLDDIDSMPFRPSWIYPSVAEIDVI [P0AF24]
[reply] 9.89 h

[ask] Now the same for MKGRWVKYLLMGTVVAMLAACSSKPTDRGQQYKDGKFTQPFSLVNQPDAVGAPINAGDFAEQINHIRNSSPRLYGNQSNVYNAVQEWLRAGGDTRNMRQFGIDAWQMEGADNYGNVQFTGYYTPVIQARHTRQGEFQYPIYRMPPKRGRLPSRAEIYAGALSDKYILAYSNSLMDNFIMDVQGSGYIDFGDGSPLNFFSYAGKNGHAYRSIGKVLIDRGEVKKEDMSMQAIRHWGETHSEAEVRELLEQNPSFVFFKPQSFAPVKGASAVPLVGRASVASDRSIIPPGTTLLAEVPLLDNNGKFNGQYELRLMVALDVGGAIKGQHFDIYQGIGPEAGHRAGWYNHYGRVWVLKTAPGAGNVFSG [P0A935]
[reply] 3.79 h
